Biological target: human V2 receptor (Homo sapiens, UniProt P30518)
Construct: expressed in transfected cells; host or cells: CHO K1 (ATCC) expressing firefly luciferase under a CRE-responsive promoter
Sequence (P30518 whole entry): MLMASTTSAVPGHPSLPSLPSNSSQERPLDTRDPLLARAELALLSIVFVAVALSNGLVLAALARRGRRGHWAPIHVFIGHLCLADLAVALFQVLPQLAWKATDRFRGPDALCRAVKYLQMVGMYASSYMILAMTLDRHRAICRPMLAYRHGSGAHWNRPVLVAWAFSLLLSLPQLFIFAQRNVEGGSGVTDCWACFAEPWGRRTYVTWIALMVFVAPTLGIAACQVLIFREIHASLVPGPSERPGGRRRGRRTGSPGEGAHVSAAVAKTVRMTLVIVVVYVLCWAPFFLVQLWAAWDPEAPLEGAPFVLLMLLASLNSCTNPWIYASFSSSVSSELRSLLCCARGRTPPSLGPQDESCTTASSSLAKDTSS
Assay: Cellular in vitro assay for determining vasopressin receptor activity, V2 receptor cell line (CHO, CRE-luciferase)
Format: cell-based
Conditions: CHO cell line transfected with human V2 receptor; [Arg8]-vasopressin at EC50 concentration, 3 hours; read-out: IC50 hV2
PROPERTY_MEASURED: pIC50
When answering, recall that pIC50 equals minus log10 of the concentration in mol/L, and write that number alone.

Reading of pIC50 for CC1(O)CCN(C(=O)c2ccccc2-n2cnc(Cn3nc(-c4ccc(Cl)cc4)n(C[C@H](O)C(F)(F)F)c3=O)n2)C1 (mixture of isomers) with human V2 receptor (Homo sapiens, UniProt P30518): 5.46

Reading of pIC50 for `Cn1nccc1NC(=O)c1ccccc1-n1cnc(Cn2nc(-c3ccc(Cl)cc3)n(C[C@H](O)C(F)(F)F)c2=O)n1` with human V2 receptor (Homo sapiens, UniProt P30518): 6.12

Reading of pIC50 for `Cc1cc(C(=O)Nc2ncccc2-n2cnc(Cn3nc(-c4ccc(Cl)cc4)n(C[C@H](O)C(F)(F)F)c3=O)n2)on1` with human V2 receptor (Homo sapiens, UniProt P30518): 5.94

Reading of pIC50 for CC1(C(=O)Nc2ncccc2-n2cnc(Cn3nc(-c4ccc(Cl)cc4)n(C[C@H](O)C(F)(F)F)c3=O)n2)CCCO1 (stereo partly drawn) with human V2 receptor (Homo sapiens, UniProt P30518): 6.02

Reading of pIC50 for `O=C(Nc1ncccc1-n1cnc(Cn2nc(-c3ccc(Cl)cc3)n(C[C@H](O)C(F)(F)F)c2=O)n1)c1ccccc1` with human V2 receptor (Homo sapiens, UniProt P30518): 5.67

Reading of pIC50 for `NC(=O)[C@@H]1CC(F)(F)CN1c1ccncc1-n1cnc(Cn2nc(-c3ccc(Cl)cc3)n(C[C@H](O)C(F)(F)F)c2=O)n1` with human V2 receptor (Homo sapiens, UniProt P30518): 5.31
